# credit: patent US20250250357A1

target: T1, human MSLN-R3-3 polypeptide (human); assay: ELISA on coated antigen, antibody 0.0001 nM
T1 construct: also called human MSLN-R3-3 protein; hMSLN-R3-3
ENDPOINT: OD450 (OD450)
Give just the number in OD450; leave the unit off.

### Prompt # query: OD450 of entry S009-F2.47.1 (antibody, human IgG1, kappa, V domains shown, Human-murine chimeric antibody: murine VH/VL on human IgG1 heavy and kappa light constant regions) VH: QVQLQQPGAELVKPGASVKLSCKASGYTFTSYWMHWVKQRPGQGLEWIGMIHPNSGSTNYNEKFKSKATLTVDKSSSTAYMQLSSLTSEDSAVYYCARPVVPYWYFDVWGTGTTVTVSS VL: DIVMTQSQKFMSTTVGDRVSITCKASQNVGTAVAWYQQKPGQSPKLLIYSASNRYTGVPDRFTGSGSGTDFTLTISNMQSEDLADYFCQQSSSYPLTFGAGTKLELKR
### Response 0.05

### Prompt S009-F2.21.4 (antibody, human IgG1, kappa, V domains shown, Human-murine chimeric antibody: murine VH/VL on human IgG1 heavy and kappa light constant regions) VH: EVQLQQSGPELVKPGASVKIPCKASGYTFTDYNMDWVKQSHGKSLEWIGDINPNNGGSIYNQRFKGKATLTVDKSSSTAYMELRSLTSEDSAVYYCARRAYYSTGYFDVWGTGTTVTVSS VL: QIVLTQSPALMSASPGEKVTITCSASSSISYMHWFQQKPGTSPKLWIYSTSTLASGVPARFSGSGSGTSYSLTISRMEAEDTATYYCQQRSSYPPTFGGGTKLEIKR , same question.
### Response 0.05
